System: type I calli from the PHH corn line
Test: Agrobacterium-mediated transformation of plant-phenolic pre-treated type I callus from corn
Type: cell-based
Settings: 5 days on 100 μM compound; approximately 200 callus fragments; strain A3637 (or A3638)

- COMPOUND: "O=C(O)c1ccc(O)cc1 [p-hydroxybenzoic acid, 4-hydroxybenzoic acid]"
  Number of PAT-positive lines: 2
- COMPOUND: "O=C(O)c1ccc(O)c(O)c1 [3,4-dihydroxybenzoic acid]"
  Number of PAT-positive lines: 2
- COMPOUND: "O=C(O)c1cc(O)c(O)c(O)c1 [gallic acid, 3,4,5-trihydroxybenzoic acid]"
  Number of PAT-positive lines: 3
- COMPOUND: "COc1cc(C=O)ccc1O [vanillin, 3-methoxy-4-hydroxybenzaldehyde]"
  Number of PAT-positive lines: 4
- COMPOUND: "Oc1ccccc1O [catechol, 1,2-dihydroxybenzene]"
  Number of PAT-positive lines: 1
- COMPOUND: "O=C(O)c1ccc(O)cc1O [2,4-dihydroxybenzoic acid, 2,4 dihydroxybenzoic acid]"
  Number of PAT-positive lines: 1
- COMPOUND: "COc1cc(C(C)=O)cc(OC)c1O [acetosyringone, 3,5-dimethoxy-4-hydroxyacetophenone]"
  Number of PAT-positive lines: 2
